Taken from ChEMBL document CHEMBL1687900.

- testDescription: Inhibition of FTase
endpoint: IC50 (nM)

Solved cases below.
{"compound": "N#Cc1ccc(Cn2cncc2CN2CCN(C(=O)c3ccccc3-c3ccccc3)CCC2c2ccccc2)cc1 (centres undefined)", "valueObserved": 17}
{"compound": "N#Cc1ccc(Cn2cncc2CN2CCCN(C(=O)c3ccccc3)CC2)cc1", "valueObserved": 8}
{"compound": "Cc1cccc(C(=O)N2CCCN(Cc3cncn3Cc3ccc(C#N)cc3)CC2)c1", "valueObserved": 15}
{"compound": "N#Cc1ccc(Cn2cncc2CN2CCCN(C(=O)c3ccccc3Br)CC2)cc1", "valueObserved": 64}

1. N#Cc1ccc(Cn2cncc2CN2CCCN(C(=O)C3CCCCC3)CC2)cc1
2. N#Cc1ccc(Cn2cncc2CN2CCCN(C(=O)C34CC5CC(CC(C5)C3)C4)CC2)cc1
Which has the smaller recorded IC50, 1 or 2 ? I would appreciate it if you answered with the label of your choice. 2
